Target: Sentrin-specific protease 1 (Homo sapiens)
Sequence (Q9P0U3 whole entry): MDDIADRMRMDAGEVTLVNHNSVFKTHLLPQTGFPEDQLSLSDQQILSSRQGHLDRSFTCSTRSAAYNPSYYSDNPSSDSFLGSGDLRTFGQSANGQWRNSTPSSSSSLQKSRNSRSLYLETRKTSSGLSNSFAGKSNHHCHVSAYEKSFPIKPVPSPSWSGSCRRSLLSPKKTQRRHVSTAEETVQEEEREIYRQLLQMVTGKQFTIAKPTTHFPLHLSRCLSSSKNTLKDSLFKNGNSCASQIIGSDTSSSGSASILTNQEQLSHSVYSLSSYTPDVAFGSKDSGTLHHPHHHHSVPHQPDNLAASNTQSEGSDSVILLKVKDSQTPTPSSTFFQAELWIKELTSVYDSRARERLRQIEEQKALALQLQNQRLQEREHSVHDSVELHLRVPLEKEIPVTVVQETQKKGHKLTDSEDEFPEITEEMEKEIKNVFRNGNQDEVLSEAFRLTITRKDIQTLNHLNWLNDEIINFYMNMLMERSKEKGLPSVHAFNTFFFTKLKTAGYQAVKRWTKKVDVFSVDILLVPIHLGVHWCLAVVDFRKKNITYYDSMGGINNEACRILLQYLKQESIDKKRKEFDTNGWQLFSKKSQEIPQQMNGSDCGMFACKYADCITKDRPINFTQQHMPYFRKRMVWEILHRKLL
Parameter: IC50. Scope: all listed entries.
Please reply with the bare figure in µM and do not write the unit itself.

Solved cases below.
| molecule | targetSystem | IC50 [µM] |
| --- | --- | --- |
| Oc1c2c(c(O)n1-c1ccccn1)C(c1ccccc1)C=CC2c1ccccc1 (stereo not drawn) | Sentrin-specific protease 1 (Homo sapiens) | 7.9 |
| Nc1ccc2c(c1)C(N=O)c1cc([N+](=O)[O-])ccc1-2 (stereo not drawn) | Sentrin-specific protease 1 (Homo sapiens) | 3.12 |
| O=C1CCCC2=Nc3cc(Cl)ccc3SC12 (stereo not drawn) | Sentrin-specific protease 1 (Homo sapiens) | 17.1 |
| COc1ccc(-n2c(O)c3c(c2O)C(C(=O)c2ccccc2)N2CCCC32)cc1 (stereo not drawn) | Sentrin-specific protease 1 (Homo sapiens) | 11 |
| CC1(C)CC(=O)C2Sc3ccccc3N=C2C1 (stereo not drawn) | Sentrin-specific protease 1 (Homo sapiens) | 42.4 |
| O=C1CC(=O)c2cccc3cccc1c23 [3-hydroxy-1H-phenalen-1-one] | Sentrin-specific protease 1 (Homo sapiens) | 8.55 |

Query: IC50; subject: "CCN1C(=O)c2cccc3c(NC(=O)c4cccc(-n5c(O)ccc5O)c4)ccc1c23"
11.3

* * *

Biological target: UniProt:Q9P0U3
Sequence (Q9P0U3 whole entry): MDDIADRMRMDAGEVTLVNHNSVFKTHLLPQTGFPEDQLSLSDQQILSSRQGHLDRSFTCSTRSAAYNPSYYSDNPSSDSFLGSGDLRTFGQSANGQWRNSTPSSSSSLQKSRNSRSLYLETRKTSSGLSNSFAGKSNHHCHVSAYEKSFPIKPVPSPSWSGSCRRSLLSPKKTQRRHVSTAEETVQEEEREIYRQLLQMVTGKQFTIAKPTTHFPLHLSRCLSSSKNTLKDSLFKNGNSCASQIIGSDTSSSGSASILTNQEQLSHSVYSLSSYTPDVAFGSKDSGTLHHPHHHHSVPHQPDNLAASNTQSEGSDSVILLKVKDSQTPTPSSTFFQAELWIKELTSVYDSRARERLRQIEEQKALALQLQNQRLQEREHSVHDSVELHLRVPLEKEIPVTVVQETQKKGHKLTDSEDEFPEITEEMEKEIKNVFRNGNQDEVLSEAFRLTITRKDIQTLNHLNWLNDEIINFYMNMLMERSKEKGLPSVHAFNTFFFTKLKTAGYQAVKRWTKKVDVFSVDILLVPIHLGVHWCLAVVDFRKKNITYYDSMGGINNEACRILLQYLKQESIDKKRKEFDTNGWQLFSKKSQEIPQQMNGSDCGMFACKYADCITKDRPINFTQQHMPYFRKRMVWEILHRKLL
quantityName: IC50 (µM)
Numeric answer only, unit µM assumed.

Field: example entries. Status: answers known.
| compound | IC50 [µM] |
| --- | --- |
| O=NC1c2cc([N+](=O)[O-])ccc2-c2cc(Cl)c(NC(=O)C(F)(F)F)cc21 (stereo not given) [MLS002707326] | 2.89 |
| O=C1CC(=Nc2ccc(Cl)cc2)C(=O)N1c1ccc(Cl)cc1 | 12.5 |
| CN(C)c1ccc(C=NNC(=O)C(=O)CC2=NC3(CCCC3)Cc3ccccc32)cc1 [MLS000589038] | 13.2 |
| O=C(O)c1ccc(N=NCc2cccc3nccnc23)cc1 | 8.97 |

Read the next record carefully.
Can you look up the measured IC50 of CC1=C(C#N)C(=O)NC(=O)C1=NNc1ccc(Br)cc1C(=O)O [MLS001213177] for me?
10.6
